measuredOn: G-actin (UniProt P68135 1-377)
protocolNotes: fluorescence polarisation
endpointLabel: Kd

[[record]]
binder = "TMR-SpWsp1(VCA) (domain or fragment, TMR-labeled (position not given)) QDGRANLMASIRASGGMDLLKSRKVSASPSVASTKTSNPPVEAPPSNNLMDALASALNQRKTKVAQSDEEDEDDDEWD"
endpointlabel = "Kd"
val = "~21 nM"


// provenance: paper PMC4293355
